What IC50 was measured for each of the following?
Biological target: Voltage-gated inwardly rectifying potassium channel KCNH2 (Homo sapiens, UniProt Q12809)
Sequence (Q12809 whole entry): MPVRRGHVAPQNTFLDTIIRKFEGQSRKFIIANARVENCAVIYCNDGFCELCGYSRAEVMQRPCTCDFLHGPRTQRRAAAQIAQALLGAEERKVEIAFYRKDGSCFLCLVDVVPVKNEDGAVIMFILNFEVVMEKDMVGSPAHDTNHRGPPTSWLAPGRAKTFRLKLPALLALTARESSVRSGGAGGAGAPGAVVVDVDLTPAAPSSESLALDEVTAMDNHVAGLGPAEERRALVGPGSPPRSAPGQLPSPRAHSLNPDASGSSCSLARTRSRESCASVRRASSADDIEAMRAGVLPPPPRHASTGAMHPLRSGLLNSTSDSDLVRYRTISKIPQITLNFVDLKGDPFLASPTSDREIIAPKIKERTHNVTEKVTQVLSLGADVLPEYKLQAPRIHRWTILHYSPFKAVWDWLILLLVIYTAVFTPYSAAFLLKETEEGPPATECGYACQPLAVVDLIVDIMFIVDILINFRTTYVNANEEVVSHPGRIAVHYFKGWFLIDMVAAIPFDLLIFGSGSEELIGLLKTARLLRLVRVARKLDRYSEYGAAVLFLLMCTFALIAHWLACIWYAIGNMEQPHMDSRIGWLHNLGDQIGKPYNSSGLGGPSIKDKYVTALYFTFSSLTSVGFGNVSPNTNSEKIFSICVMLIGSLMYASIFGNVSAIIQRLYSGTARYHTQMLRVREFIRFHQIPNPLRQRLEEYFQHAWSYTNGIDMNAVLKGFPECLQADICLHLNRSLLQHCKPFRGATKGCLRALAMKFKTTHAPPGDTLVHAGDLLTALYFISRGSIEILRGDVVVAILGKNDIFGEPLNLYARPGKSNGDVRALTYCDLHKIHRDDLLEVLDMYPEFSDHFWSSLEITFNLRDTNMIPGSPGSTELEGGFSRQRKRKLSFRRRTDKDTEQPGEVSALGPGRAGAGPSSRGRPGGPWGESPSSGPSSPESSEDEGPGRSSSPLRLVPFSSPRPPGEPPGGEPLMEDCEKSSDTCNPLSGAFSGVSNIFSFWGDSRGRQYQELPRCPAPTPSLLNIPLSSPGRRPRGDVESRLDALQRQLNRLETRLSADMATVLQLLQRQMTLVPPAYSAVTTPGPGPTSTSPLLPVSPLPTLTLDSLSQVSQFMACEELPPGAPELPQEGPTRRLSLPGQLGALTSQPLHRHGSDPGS
Experiment: Inhibition of human ERG stably expressed in HEK293 cells by manual patch clamp method
Type: toxicity, cell-based
Give bare numbers, in µM.

- chemicalSmiles: "CC(=O)N1CCC(CCn2nc(-c3ccc4[nH]ccc4c3)c3c(N)ncnc32)CC1"
  experimentalResult: 11.7

Entry `CC(=O)N1CCC(CCn2nc(-c3ccc4[nH]cc(C)c4c3)c3c(N)ncnc32)CC1` , IC50 reported as 9.87

----------
Molecular target: UniProtKB P36897
Sequence (P36897 whole entry): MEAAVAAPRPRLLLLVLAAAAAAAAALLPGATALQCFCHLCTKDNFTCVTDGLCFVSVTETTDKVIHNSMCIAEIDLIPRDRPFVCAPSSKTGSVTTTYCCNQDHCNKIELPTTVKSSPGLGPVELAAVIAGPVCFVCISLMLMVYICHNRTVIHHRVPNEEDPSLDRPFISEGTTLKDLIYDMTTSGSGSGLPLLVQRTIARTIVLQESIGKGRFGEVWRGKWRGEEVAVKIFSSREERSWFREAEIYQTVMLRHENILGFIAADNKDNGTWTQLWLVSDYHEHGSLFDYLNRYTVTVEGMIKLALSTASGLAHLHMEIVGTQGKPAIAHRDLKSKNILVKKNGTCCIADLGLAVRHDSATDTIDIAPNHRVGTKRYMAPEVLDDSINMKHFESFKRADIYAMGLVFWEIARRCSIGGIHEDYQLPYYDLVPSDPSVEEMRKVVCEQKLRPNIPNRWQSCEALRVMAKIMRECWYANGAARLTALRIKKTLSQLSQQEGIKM
Assay: Inhibition of ALK5 (unknown origin) incubated for 2 hrs in presence of ATP by ADP-Glo reagent based luminescence plate reader analysis
assayEndpoint: pIC50
One number for each entry, as −log10 of the molar value.

Form: item CC(C)(C)OC(=O)N1CCC(Cn2nc(-c3ccc4[nH]ccc4c3)c3c(N)ncnc32)C1 (stereo unspecified) ; test system UniProtKB P36897; pIC50: 6.81

----------
Experiment: in vitro
Settings: human, BEAS-2B cells
assayEndpoint: CC50 at 72 h

Entry Cc1cccc(-c2nn3c(c2-c2ccnc4ccc(C(N)=O)cc24)CCC3)n1 [GALUNISERTIB] , CC50 at 72 h reported as 13 µM

----------
Target: TGF-beta receptor type-1 (Mus musculus, UniProt Q64729)
Sequence (Q64729 whole entry): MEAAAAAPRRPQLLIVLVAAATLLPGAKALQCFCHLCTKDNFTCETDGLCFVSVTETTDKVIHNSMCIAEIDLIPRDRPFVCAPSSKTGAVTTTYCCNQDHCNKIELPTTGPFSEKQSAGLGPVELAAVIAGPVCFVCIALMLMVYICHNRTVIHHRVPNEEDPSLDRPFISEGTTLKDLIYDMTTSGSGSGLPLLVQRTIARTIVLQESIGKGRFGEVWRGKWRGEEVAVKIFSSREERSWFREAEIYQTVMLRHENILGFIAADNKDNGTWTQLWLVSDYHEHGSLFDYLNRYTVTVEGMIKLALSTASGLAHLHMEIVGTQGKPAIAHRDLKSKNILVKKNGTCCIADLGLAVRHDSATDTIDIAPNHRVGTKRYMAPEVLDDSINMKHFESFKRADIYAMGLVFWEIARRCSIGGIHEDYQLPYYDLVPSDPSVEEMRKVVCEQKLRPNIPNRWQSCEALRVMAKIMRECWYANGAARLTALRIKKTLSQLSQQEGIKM
Experiment: Inhibition of ALK5 signaling in mouse NIH3T3 cells transfected with (CAGA)12-luciferase reporter incubated for 18 hrs in presence of TGF-beta1 by dual-luciferase reporter assay
pEC50: −log10 of the molar value.
assayEndpoint: pEC50

Hi team, please reply with pEC50 for each item in this list.
1. N#Cc1ccc(S(=O)(=O)N2CCC(CCn3nc(-c4ccc5[nH]ccc5c4)c4c(N)ncnc43)CC2)cc1
2. Nc1ncnc2c1c(-c1ccc3[nH]ccc3c1)nn2CCC1CCN(C(=O)OCc2ccccc2)CC1
3. CC(=O)N1CCC(CCn2nc(-c3ccc4c(c3)OCO4)c3c(N)ncnc32)CC1

1. < 6.00
2. < 6.00
3. < 6.00

These entries and their values trace back to ChEMBL document CHEMBL5512657.
